- tested system: human cyclin-dependent kinase 2 (Cdk2) (Homo sapiens)
- Construct: poly-histidine; made in house; host or cells: E. coli
- procedure details: Kinetic thiol consumption assay with wild type Cdk2 (C177)
- Type: binding
- measurement setup: Protein: Cdk2; cysteine position WT; in h^-1
readout name: Rate constant with Cdk2 WT
Answers are plain numbers.

Here's what some known entries look like.
| compound | Rate constant with Cdk2 WT |
| --- | --- |
| C=CC(=O)NCC1CCCN1S(=O)(=O)c1ccc(C)cc1 (stereo not drawn) | 0.0105 |
| C=CC(=O)NC1(c2noc(C)n2)CCCCCC1 | 0.03304 |
| C=CC(=O)NCCc1c[nH]c2ccccc12 | 0.001449 |
| Cn1cc(S(=O)(=O)N2CCOCC2)cc1C(=O)NC(=O)CCl | 0.006451 |

Go through the list and state Rate constant with Cdk2 WT for each entry.
1. O=C(CCl)N1CCSc2ccccc21
2. C=CC(=O)N1CCCCCC1c1cccs1 (stereo not drawn)
3. C=CC(=O)NCCCN(C(=O)C1CCC1)C1CC1
4. C=CC(=O)NCCNC(=O)c1ccccc1
5. C=CC(=O)N1CCCc2sccc2C1
6. O=C(CCl)N1CCCCCC1
7. C=CC(=O)N(CC(=O)N1CCCC1)CC1CCCO1 (stereo not drawn)
8. C=CC(=O)N1CCc2cc(-c3cccc(F)c3)ccc21

Given back:
[1.596, 0.002743, 0.00367, 0.01619, 0.01944, 0.08018, 0.00279, 0.04257]
